Hello, the source for this data is ChEMBL document CHEMBL5108072, in case you need it.

System: SARS-CoV-2
method-description: microbe, parasite or virus in culture
assay-conditions: Severe acute respiratory syndrome coronavirus 2, omicron TY38-873 BA.2, HEK-293T
What EC50 was measured for each of the following?
One number for each entry, in nM.

compound: CC(C)C[C@H](NC(=O)c1cc2c(F)cccc2[nH]1)C(=O)NN(C[C@@H]1CCNC1=O)C(=O)[C@H](F)Cl
target-of-assay: SARS-CoV-2
EC50 / nM: 17.1
//
compound: O=c1nc(NO)ccn1[C@@H]1O[C@H](CO)[C@@H](O)[C@H]1O [N-HYDROXYCYTIDINE]
target-of-assay: SARS-CoV-2
EC50 / nM: 336
//
compound: COc1cccc2[nH]c(C(=O)N[C@@H](CC(C)C)C(=O)NN(C[C@H]3CCNC3=O)C(=O)[C@H](F)Cl)cc12
target-of-assay: SARS-CoV-2
EC50 / nM: 121
//
compound: COc1cccc2[nH]c(C(=O)N[C@@H](CC(C)C)C(=O)N[C@@H](C[C@@H]3CCNC3=O)C(=O)CO)cc12 [PF-00835231]
target-of-assay: SARS-CoV-2
EC50 / nM: 832
//
compound: CC(C)C[C@H](NC(=O)c1cc2c(F)cccc2[nH]1)C(=O)NN(C[C@@H]1CCNC1=O)C(=O)[C@@H](F)Cl
target-of-assay: SARS-CoV-2
EC50 / nM: 126
//
compound: COc1cccc2[nH]c(C(=O)N[C@@H](CC(C)C)C(=O)NN(C[C@@H]3CCNC3=O)C(=O)[C@H](F)Cl)cc12
target-of-assay: SARS-CoV-2
EC50 / nM: 18.3

Read the next record carefully.
Identify the reported EC50 for the following entry. "CC(C)C[C@H](NC(=O)c1cc2c(F)cccc2[nH]1)C(=O)NN(C[C@H]1CCNC1=O)C(=O)[C@H](F)Cl"
131
